Please provide measured pKd for the entries that follow.
# TARGET UNDER TEST: colchicine site of bovine brain tubulin
# Type: binding
# CONDITION DETAILS: tubulin binding constant, 25 °C; read-out: Kd
Give bare numbers, as −log10 of the molar value.

Field: example entries. Status: answers known.
COc1ccc(-c2ccc(OC)c(=O)cc2C)c(OC)c1OC ... 4.70
COc1cc(C)c(-c2ccc(OC)c(=O)cc2C)c(OC)c1OC (single isomer, unassigned) [(aR)-6] ... 4.02
COc1cc(C)c(-c2ccc(OC)c(=O)cc2)c(OC)c1OC ... 4.85
COc1cc(C)c(-c2ccc(OC)c(=O)cc2C)c(OC)c1OC (single isomer, unassigned) [(aS)-6] ... 3.64
COc1ccc(-c2ccc(OC)c(=O)cc2)c(OC)c1OC [compound 3, reference compound] ... 5.49

Would you kindly look at the next entry?
Given the compound COc1ccc(-c2ccc(=O)c(OC)cc2C)c(OC)c1OC , what is its reported pKd?
3.64
